Would you mind labelling by glass transition temperature? At or over 200 °C is Satisfied, under is Not satisfied.

Answered examples (5):
>  <COMPOUND>
*Oc1c(Br)cc(C(C)(C)c2cc(Br)c(OC(=O)c3ccc(OCCCCCCCCCCOc4ccc(C(*)=O)cc4)cc3)c(Br)c2)cc1Br (repeat unit)

>  <LABEL CLASS>
Not satisfied

$$$$
>  <COMPOUND>
*CC(C)(C)C1C(=O)N(C)C(=O)C1* (repeat unit)

>  <LABEL CLASS>
Not satisfied

$$$$
>  <COMPOUND>
*Oc1ccc(Oc2ccc(C(=O)Nc3ccc(Oc4ccc(S(=O)(=O)c5ccc(Oc6ccc(NC(=O)c7ccc(*)cc7)cc6)cc5)cc4)cc3)cc2)cc1-c1ccccc1 (repeat unit)

>  <LABEL CLASS>
Satisfied

$$$$
>  <COMPOUND>
*c1ccc(Oc2ccc(Oc3ccc(Oc4ccc(N5C(=O)c6ccc(Oc7ccc(-c8ccc(Oc9ccc%10c(c9)C(=O)N(*)C%10=O)cc8)cc7)cc6C5=O)cc4)cc3)cc2)cc1 (repeat unit)

>  <LABEL CLASS>
Satisfied

$$$$
>  <COMPOUND>
*CCCCCCOC(=O)OCCCOC(=O)OCCCCCCN1C(=O)c2ccc(C(=O)c3ccc4c(c3)C(=O)N(*)C4=O)cc2C1=O (repeat unit)

>  <LABEL CLASS>
Not satisfied

$$$$

Q. Hi, just wondering whether *c1ccc(Oc2cccc(Oc3ccc(N4C(=O)c5cccc(Oc6ccc(S(=O)(=O)c7ccc(Oc8cccc9c8C(=O)N(*)C9=O)cc7)cc6)c5C4=O)cc3)c2)cc1 (repeat unit) shows glass transition temperature of 200 °C or higher.
A. Satisfied

Q. Hi, just wondering whether *CC(*)C(=O)NC(C)(C)CC(C)=O (repeat unit) shows glass transition temperature of 200 °C or higher.
A. Not satisfied

The measurements presented in this section are drawn from the PolyMetriX glass transition set.
